Reference for the values: ChEMBL document CHEMBL1149551

For Peroxisome proliferator-activated receptor gamma (Homo sapiens), measured EC50 is reported for the entries below.

Consider the worked cases shown below.
CCO[C@@H](Cc1ccc(OC/C=C(\C#Cc2ccccc2)c2ccccc2)cc1)C(=O)O :: > 10 µM
Cc1cc(SC/C=C\C(C#Cc2ccccc2)c2ccc(Br)cc2)ccc1OCC(=O)O (stereo not drawn) :: > 10 µM

Now look at this one.
The value of EC50 measured for the molecule COc1ccc(C#CC(/C=C\CSc2ccc(OCC(=O)O)c(C)c2)c2ccc(-c3ccccc3)cc2)cc1 (stereo not drawn) turned out to be > 10 µM

* * *

SYSTEM: Peroxisome proliferator-activated receptor alpha (Homo sapiens, UniProt Q07869)
Sequence (Q07869 whole entry): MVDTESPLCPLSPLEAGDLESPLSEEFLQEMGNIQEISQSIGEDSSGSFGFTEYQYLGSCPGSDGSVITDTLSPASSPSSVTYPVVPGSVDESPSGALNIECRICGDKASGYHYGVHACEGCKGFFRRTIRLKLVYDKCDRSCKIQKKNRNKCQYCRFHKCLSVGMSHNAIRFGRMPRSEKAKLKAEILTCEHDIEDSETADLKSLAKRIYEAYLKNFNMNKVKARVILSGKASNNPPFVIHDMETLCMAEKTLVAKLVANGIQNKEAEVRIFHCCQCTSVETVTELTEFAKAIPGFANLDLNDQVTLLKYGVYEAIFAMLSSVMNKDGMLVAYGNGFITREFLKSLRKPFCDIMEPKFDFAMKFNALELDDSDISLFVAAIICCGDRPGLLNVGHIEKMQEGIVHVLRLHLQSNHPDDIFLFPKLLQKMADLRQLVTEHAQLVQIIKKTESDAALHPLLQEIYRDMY
TEST_SUMMARY: Agonist activity at human PPARalpha by transactivation assay
pEC50: −log10 of the molar value.
OBSERVATION_TYPE: pEC50

Cc1cc2cc(C(C#Cc3ccc(F)cc3)/C=C\COc3ccc(OCC(=O)O)c(C)c3)ccc2o1 (stereo not drawn) :: < 5.00
CCO[C@@H](Cc1ccc(OC/C=C/C#Cc2ccccc2)cc1)C(=O)O :: 8.00

We next turn to a different compound, shown below.
Noted for Cc1cc(OC/C=C\C(C#Cc2ccc(C(F)(F)F)cc2)c2ccc(Br)cc2)ccc1OCC(=O)O (stereo not drawn) : its pEC50 reads < 5.00

* * *

SYSTEM: Peroxisome proliferator-activated receptor delta (Homo sapiens, UniProt Q03181)
Sequence (Q03181 whole entry): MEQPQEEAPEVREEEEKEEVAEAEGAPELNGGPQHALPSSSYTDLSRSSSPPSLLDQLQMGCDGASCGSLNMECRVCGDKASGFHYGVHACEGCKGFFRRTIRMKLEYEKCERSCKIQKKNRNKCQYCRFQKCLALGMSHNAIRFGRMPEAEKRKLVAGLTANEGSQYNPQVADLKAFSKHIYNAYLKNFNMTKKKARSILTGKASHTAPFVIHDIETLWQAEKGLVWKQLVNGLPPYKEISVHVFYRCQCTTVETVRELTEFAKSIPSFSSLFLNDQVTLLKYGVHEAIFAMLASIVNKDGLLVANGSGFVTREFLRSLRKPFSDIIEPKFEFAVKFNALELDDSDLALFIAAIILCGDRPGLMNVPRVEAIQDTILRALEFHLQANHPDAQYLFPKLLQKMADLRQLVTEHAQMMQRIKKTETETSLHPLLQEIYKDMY
# strict inequality: EC50 < 200 nM yields fulfilled, everything else yields not fulfilled

Cc1ccc(C#CC(/C=C\COc2ccc(OCC(=O)O)c(C)c2)c2ccc(Br)cc2)s1 (stereo not drawn) :: not fulfilled
COc1ccc(C#CC(/C=C\CSc2ccc(OCC(=O)O)c(C)c2)c2ccc(-c3ccccc3)cc2)cc1 (stereo not drawn) :: fulfilled

I'd appreciate it if you could check whether Cc1cc(OC/C=C\C(C#Cc2ccc(C(F)(F)F)cc2)c2ccc(Br)cc2)ccc1OCC(=O)O (stereo not drawn) has EC50 smaller than 200 nM.
fulfilled

Please let me know if Cc1cc(OC/C=C\C(C#Cc2ccccn2)c2ccc(Br)cc2)ccc1OCC(=O)O (stereo not drawn) shows EC50 below 200 nM.
not fulfilled

Check if EC50 falls below 200 nM for Cc1cc(SC/C=C\C(C#Cc2ccccc2)c2ccc(Br)cc2)ccc1OCC(=O)O (stereo not drawn) .
fulfilled

Input CCO[C@@H](Cc1ccc(OC/C=C/C#Cc2ccccc2)cc1)C(=O)O ; condition: EC50 strictly below 200 nM. Does it hold?
not fulfilled

Please state whether EC50 is below 200 nM for Cc1cc(SC/C=C/C#Cc2ccccc2)ccc1OCC(=O)O
not fulfilled

Criterion: EC50 strictly below 200 nM. Is it met by Cc1cc2cc(C(C#Cc3ccc(C)s3)/C=C\COc3ccc(OCC(=O)O)c(C)c3)ccc2o1 (stereo not drawn) ?
fulfilled
